B1: TRIM35 (parent)
chain: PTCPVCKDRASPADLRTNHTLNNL

variants of: B1; test: protein stability index of a GFP-peptide fusion (GPS, HEK-293T) (PSI 1-6); higher = more stable; details: c terminus: a fixed tail appended;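 note: lentivirally expressed fusions sorted by FACS into six bins by GFP to DsRed ratio, PSI derived from sequencing read proportions per bin multiplied by bin number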
Task for the reader: assign each of the following variants its reported protein stability index.
Answers are plain numbers.

Here are 4 variants together with their reported answers.
L24W : 3
R16F : 2.42
T20P : 3.23
R9G : 3.66

Take each entry in turn and give its protein stability index.
1. D14Y
2. H19M
3. N22Y
4. N23R
5. P1T
6. S11H
7. L21D

(A)
[2.24, 3.09, 2.38, 2.37, 2.99, 2.92, 3.99]

These measurements were taken from the supplement of paper PMC10567573.
